B1: LINE1-full (parent)
chain: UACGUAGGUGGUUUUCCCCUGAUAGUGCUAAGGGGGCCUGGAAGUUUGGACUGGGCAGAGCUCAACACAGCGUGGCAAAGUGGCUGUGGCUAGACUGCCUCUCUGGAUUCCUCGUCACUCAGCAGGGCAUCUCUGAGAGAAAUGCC

# Variants of: B1
# run.description: self-cleavage, relative activity (ratio to wild type); higher = more cleavage; in vitro, sequencing; the parent is a self-cleaving ribozyme
// Condition not met strictly below 0.8 in self-cleavage; Condition met otherwise

Check out these entries, answers already filled in.
>>> class_name("UACGUAGGUGGUUUUCCCCUGAUAGUGCUAAGGGGGCCUAGAAGUUUGGACUGGGCAGAGCUCAACACAGCGUGGCAAAGUGGCUGUGGCUAGACUGCCUCUCUGGAUUCCUCGUCACUCAGCAGGGCAUCCCUGAGAGAAAUGCC [G40A U132C]")
"Condition met"
>>> class_name("UACGUAGGUGGUUUUCCCCUGAUAGUGCUAAGGGGGCCUGGAAGCUUGGACUGGGCAGAGCUCAAUACAGCGUGGCAAAGUGGCUGUGGCUAGACUGCCUCUCUGGAUUCCUCGUCACUCAGCAGGGCAUCUCUGAGAGAAAUGCC [U45C C66U]")
"Condition not met"
>>> class_name("UACGUAGGUGGUUUUCCCCUGAUAGUGCUAAGGGGGCCUGGAAGUUUGGACUGGGCAGAGCUCAACACAGCGUGGCAAAGUUGCUGUGGCUAGACUGCCUCUCUGGAUUCCUCGUCACUCAGCAGGGCAUCUCUGAGAGAGAUGCC [G82U A141G]")
"Condition met"
>>> class_name("UACGUAGGUGGUUUUCCCCUGAUAGUGCUAAGGGGGCCUGGAAGUUUGGACUGGGCAGAGCUCAACACAGCGUGGCAAAGUGACUGUGGCUAGACUGCCUCUCUGGAUUCCUCGUCACCCAGCAGGGCAUCUCUGAGAGAAAUGCC [G83A U119C]")
"Condition met"
>>> class_name("UACGUAGGUGGUUUUCCCCUGAUAGUGCUAAGGGGGCCUGGAAGUUUUGACUGGGCUGAGCUCAACACAGCGUGGCAAAGUGGCUGUGGCUAGACUGCCUCUCUGGAUUCCUCGUCACUCAGCAGGGCAUCUCUGAGAGAAAUGCC [G48U A57U]")
"Condition not met"

Next:
Hi team, for UACGUAGGUGGUUUUCCCCUGAUAGUGCUAAGGGGGCCUGGAAGUUUGGACUGAGCAGAGCUCAACACAGCGUGGCAAAGUGGCUGUGGCUAGACUGCCUCUCUGGAUUCCUCGUCACUCAGCAGGGCAUCCCUGAGAGAAAUGCC [G54A U132C] , is the recorded self-cleavage at or above 0.8?
Condition not met
